Target: Receptor tyrosine-protein kinase erbB-2 (Homo sapiens) (UniProt P04626)
Sequence (P04626 whole entry, looked up): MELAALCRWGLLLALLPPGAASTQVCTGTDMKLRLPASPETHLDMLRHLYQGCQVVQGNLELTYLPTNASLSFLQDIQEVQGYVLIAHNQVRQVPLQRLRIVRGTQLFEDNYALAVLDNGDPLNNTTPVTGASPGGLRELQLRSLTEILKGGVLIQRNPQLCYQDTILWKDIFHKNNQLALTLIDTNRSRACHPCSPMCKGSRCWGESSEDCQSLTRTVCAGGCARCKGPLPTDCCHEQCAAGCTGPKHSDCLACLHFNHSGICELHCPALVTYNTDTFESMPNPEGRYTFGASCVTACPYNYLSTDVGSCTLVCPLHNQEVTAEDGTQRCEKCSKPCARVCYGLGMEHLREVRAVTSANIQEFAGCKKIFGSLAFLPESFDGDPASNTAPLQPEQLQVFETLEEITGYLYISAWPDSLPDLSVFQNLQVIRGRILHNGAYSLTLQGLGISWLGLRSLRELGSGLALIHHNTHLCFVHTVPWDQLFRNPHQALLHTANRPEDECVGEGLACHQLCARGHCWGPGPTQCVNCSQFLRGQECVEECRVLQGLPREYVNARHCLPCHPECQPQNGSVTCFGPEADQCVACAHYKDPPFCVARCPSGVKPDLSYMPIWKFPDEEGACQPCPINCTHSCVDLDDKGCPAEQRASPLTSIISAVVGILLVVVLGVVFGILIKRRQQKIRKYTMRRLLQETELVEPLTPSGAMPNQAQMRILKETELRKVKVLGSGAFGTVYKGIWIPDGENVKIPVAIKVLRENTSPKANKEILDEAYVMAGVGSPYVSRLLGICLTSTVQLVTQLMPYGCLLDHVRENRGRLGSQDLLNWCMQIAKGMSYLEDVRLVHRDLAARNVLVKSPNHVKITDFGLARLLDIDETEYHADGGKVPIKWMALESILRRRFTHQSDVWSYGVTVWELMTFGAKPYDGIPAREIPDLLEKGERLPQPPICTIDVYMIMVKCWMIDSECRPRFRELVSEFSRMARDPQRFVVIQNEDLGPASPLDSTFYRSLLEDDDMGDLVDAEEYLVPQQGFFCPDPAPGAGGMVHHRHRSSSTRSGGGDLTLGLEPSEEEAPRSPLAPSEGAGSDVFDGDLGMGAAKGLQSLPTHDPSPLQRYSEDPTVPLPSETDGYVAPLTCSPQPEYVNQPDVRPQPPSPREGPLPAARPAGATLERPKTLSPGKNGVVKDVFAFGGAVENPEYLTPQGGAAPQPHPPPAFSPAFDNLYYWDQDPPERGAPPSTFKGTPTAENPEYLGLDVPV
Test: reducers of endogenous Her2 protein level, primary screen, SKBR3 breast tumor cells, AlphaScreen, ATP viability (AID 461);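 further: lower value means less Her2 protein in the cells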
Conditions: 18-24 h, at 10 µM, stronger effect = lower value
Threshold 90%: Her2 level strictly smaller gives class 1, otherwise class 0.

Just wondering, is Her2 level of `COc1cc(OC)cc(-c2nnc(Nc3nc4c(F)cccc4s3)o2)c1` below 90%?
class 1

Please let me know if `COCCCNC(=O)CCc1nc2cccnc2n1Cc1ccc(OC)cc1` shows Her2 level below 90%.
class 0

Her2 level under 90%? Item: `COc1ccc2nc(C)cc(N3CCOCC3)c2c1`
class 0

Regarding `COc1ccc(-c2ccc(Nc3ccc(S(=O)(=O)N4CCCC4)cc3)nn2)cc1OC` , kindly confirm whether its Her2 level is beneath 90%.
class 1

API: query returns whether the compound falls strictly under 90% in Her2 level. Query: `CCOc1ccc(Cc2nn[nH]n2)cc1`
class 1

Does this compound meet the criterion Her2 level < 90%? `Cc1cc(NC(=O)CN2CCC(O)(c3cccc(F)c3)CC2)no1`
class 0

Is Her2 level strictly under 90% for the entry `Cc1cc(Nc2ccc(N3CCC(C)CC3)cc2)n2ncnc2n1` ?
class 0

Hello, is Her2 level of the following compound strictly smaller than 90%? `OCCNc1nc2ccc(Cl)cc2[nH]1`
class 0

Say whether its Her2 level is strictly beneath 90%. Entry: COC(=O)C1=C(C)Nc2nnnn2C1c1cccs1 (centres undefined)
class 0

Given `Cc1ccc(NC(=O)Cn2cccc2)cc1Cl` , is recorded Her2 level strictly lower than 90%?
class 1

I'd appreciate it if you could check whether `C#CCNc1c(C)c(C)nc2ncnn12` has Her2 level smaller than 90%.
class 0

Decide: Her2 level of `COc1ccc(CCNC(=O)C2CCN(Cc3nc(-c4cccc(Cl)c4)oc3C)CC2)cc1OC` strictly below 90%?
class 1

Please indicate whether the reported Her2 level of `Cc1c(C(=O)O)c(-c2ccccc2)nn1-c1ccccc1` is strictly below 90%.
class 0

Dear reviewer, please state whether `COc1ccccc1-n1c(-c2cccnc2)n[nH]c1=S` has Her2 level strictly beneath 90%.
class 0

Does `CN=C1CC(C)(C)CC(=O)/C1=C(/O)CCC(=O)NC` have Her2 level strictly under 90%?
class 1

# TODO verify Her2 level < 90% strictly for this compound: Cc1ccc(NC(=O)C2CCCN(S(=O)(=O)c3cnc[nH]3)C2)cc1C (centres undefined)
class 0

* * *

Experiment: reversal of MRP1-mediated doxorubicin resistance, pilot screen, H69AR cells, doxorubicin co-treatment (AID 601)
Settings: H69AR cells + 2 uM doxorubicin, CellTiter-Glo, 72 h; measured here: viability with 2 uM doxorubicin; at 10 µM; stronger effect = lower value
Provide the recorded viability for the entries that follow.
The response must be a number in % with no trailing unit.

Fill in the blank: the reported viability of `C=CCOc1ccc(/C=N/n2cncn2)cc1OC` is ____.
86.2

Give the measured viability of `COc1cc(CC(=O)NCc2ccc3c(c2)OCO3)cc(OC)c1OC` .
86.2

Please look up its viability: Cc1nc2ccccn2c1/C(O)=C1\C(=O)C(=O)N(CCN2CCOCC2)C1c1cccs1 (stereo not drawn)
94.6

Suppose we examine the compound `Cc1ccccc1-c1nc(CN2CCC(C(=O)NCCCN3CCOCC3)CC2)c(C)o1` ; what viability value has been reported?
91.9

Record request: viability value, item `COc1cccc(C2=Nn3c(nnc3-c3ccccc3O)SC2)c1`
85.7

Any idea what its viability is? The compound is Cc1ccc(S(=O)(=O)N2CCN(S(C)(=O)=O)C2c2ccccc2)cc1 (stereo not drawn)
106

Which measured viability value corresponds to `O=C(COC(=O)c1ccccc1O)Nc1ccc(OC(F)F)cc1` ?
90.5

What value of measured viability is listed for `COc1ccc2c(c1)CCc1c(C(=O)NCc3cccnc3)noc1-2` ?
85.3

Report viability for `COC(=O)C1CCN(C(=O)c2sc3nc(-c4ccc(F)cc4)cn3c2C)CC1` please.
77.9

Given the entry CNC(=O)CC(C(=O)O)c1ccc(OCC(C)C)cc1 (stereo not drawn) , report its measured viability.
89.2

Consider the compound `CCN(CC)c1ccc2cc(NC(=O)CCC(=O)O)c(=O)oc2c1` and give its measured viability.
108

What does the data say about its viability? Entry: O=C1NC2=C(C(=O)CCC2)C(c2ccc3ncccc3c2)N1 (stereo not drawn)
85.8

Entry under review: `CC(=O)c1cccc(N(CC(=O)N2CCCC2)S(C)(=O)=O)c1` . Reported viability?
94.1

Param item = CCC(Oc1ccc2ccccc2c1)C(=O)O (stereo not drawn) ; retrieve measured viability.
81.6

Form field: reported viability of `CC1(C)CC(=O)c2cc(OCC(=O)NCCCN3CCN(c4ccccc4F)CC3)ccc2O1`
86

// lookup viability for `O=S(=O)(c1ccccc1)N(Cc1nc(-c2ccccc2)no1)C1CCCCC1`
79.6

// lookup viability for `Cc1cc(C(=O)NCCCc2ccccc2)no1`
88.7

Param item = `CCC(=O)Nc1cc2nn(-c3ccccc3)nc2cc1Cl` ; retrieve measured viability.
70.9

Would you mind telling me what viability value was observed for `Cc1oc(-c2ccccc2F)nc1CS(=O)(=O)CC(=O)N1CCN(Cc2ccccc2)CC1` ?
91.4

For `COc1cccc(-n2c(C)nc3c(cnn3-c3ccc(C)cc3)c2=O)c1` , what is its reported viability?
102

# query: viability of entry `[O-][n+]1c2c(nn1-c1ccccc1Cl)-c1nonc1CC2`
85.5

Consider the compound shown here: COc1ccccc1NC(=O)CSC1CC(=O)N(c2ccc3c(c2)OCO3)C1=O (stereo not drawn) What is its recorded viability?
98.4

Which viability value is on record for CC1CN(S(=O)(=O)c2cccc(C(=O)OCc3cc(=O)oc4cc(O)ccc34)c2)CC(C)O1 (stereo not drawn) ?
62.1

* * *

Test: growth suppression of yeast trafficking mutant, preliminary HTS, modulators of trafficking downstream of Golgi apparatus project, 1536-format plate, OD 615 nm (AID 637)
Details: yeast transport mutant growth, absorbance 615 nm, 18 h; stronger effect = higher value
Assignment: determine reported inhibition for the given molecules.
Report the value in % with no unit label.

# inhibition lookup, item `CC1CCN(S(=O)(=O)c2cn(CC(=O)N3CCN(C)CC3)c(=O)c3ccccc23)CC1`
-7.46

Quick check: inhibition of `CCOC(=O)Nc1cc(OCC)c(NC(=O)C2CC2)cc1OCC` ?
-4.26

Entry COc1ccc(/C(O)=C2/C(=O)C(=O)N(CCCN(C)C)C2c2ccco2)cc1Cl (stereo not given) : reported inhibition = ?
-10.7

Look at this molecule and give its reported inhibition. `COCCn1c(C23CC4CC(CC(C4)C2)C3)n[nH]c1=S`
1.33

Give its inhibition value. Item: C=CCn1c2ccccc2c2nnc(SCC(=O)NC(C(=O)OC)C(C)C)nc21 (stereo not given)
-4.26

GET /values?readout=inhibition&item= `CCn1nc(C(=O)OCC(=O)N2CCc3ccccc32)c2ccccc2c1=O`
-11.2

I would be grateful if you could share the reported inhibition for C=CCOc1ccc(C2C(C(=O)c3ccco3)=C(O)C(=O)N2Cc2cccnc2)cc1 (stereo not given) .
8.69

I would be grateful if you could share the reported inhibition for `COc1ccc(OCCC(=O)NCc2ccccc2)cc1` .
2.9

What value of measured inhibition is listed for `COc1ccc2c(C(=O)CN(C)C3CCCCC3)c[nH]c2c1` ?
-0.81

I would be grateful if you could share the reported inhibition for Cc1cc2nc(C3CCN(CC4COc5ccccc5O4)CC3)[nH]c2cc1C (stereo not given) .
2.83

Any idea what its inhibition is? The molecule is `COC(=O)c1c(-c2ccc(F)cc2)noc1N`
1.33

Need inhibition, item `COCCN(CC(=O)NCc1ccccc1)C(=O)CCC(=O)Nc1ccccn1`
1.94

Which inhibition reading was recorded for the molecule `CCOc1ccc2nc(NC(=O)CSc3nnnn3C3CCCCC3)sc2c1` ?
-0.33

Look up inhibition for this molecule: `COC(=O)c1ccc(NC(=O)CN2C(=O)CSC2=O)cc1`
2.3

Which inhibition reading was recorded for the molecule `CCC(=O)N1CCN(CCN=CC2=C(O)CC(C)(C)CC2=O)CC1` ?
-6.77

inhibition for `CCn1c(=O)n(CC(=O)Nc2cc(OC)ccc2OC)c(=O)c2ccccc21` ?
-0.32

Query: inhibition; subject: `COc1ccc(CNC(=O)CN(C(=O)c2ccc(CN3CCOCC3)o2)C2CCCC2)cc1`
0.98

Fill blank: measured inhibition of the molecule `CC(=O)Nc1cccc(NC(=O)c2oc3ccccc3c2C)c1` is ____.
-1.43

Need inhibition, item `CCCn1c(SCC(=O)N2CCCc3ccccc32)nnc1-c1ccccn1`
5.16

Data request, read-out inhibition, for COc1cccc2cc(C(=O)C3=C(O)C(=O)N(CCCN4CCOCC4)C3c3ccncc3)oc12 (stereo not given)
-5.5

Reported inhibition, molecule `N#CCSc1nc(-c2ccccc2)cs1` : ____
2.58

Can you look up the measured inhibition of `Cc1cc(OC(=O)N2CCOCC2)cc(C)c1Cl` for me?
-6.35

Look at this molecule and give its reported inhibition. `NC(=O)c1c(NC(=O)CN2CCCC2)sc2c1CCCC2`
-5.57

// lookup inhibition for `CCOC(=O)c1cnn(-c2cc(C)nc3c(-c4ccccc4)c(C)nn23)c1N`
-5.56

For `COc1cccc(OC)c1C(=O)N1CCN(S(=O)(=O)c2ccc(C)cc2)CC1` , what is its reported inhibition?
-3.28

Form field: reported inhibition of CC(C(=O)NCc1cccnc1)N1C(=O)c2ccccc2C1=O (stereo not given)
-4.36

Which value of inhibition has been reported for `CCOC(=O)N1CCN(c2c(NCCN(C)Cc3ccccc3)c(=O)c2=O)CC1` in the records?
-2.3

What value of inhibition has been recorded for this entry: COc1ccc(C2C(C(=O)c3sc(C)nc3C)=C(O)C(=O)N2CCN2CCOCC2)cc1 (stereo not given)
-4.19

Look up inhibition: `CCSc1nnc(NC(=O)CSc2ncccn2)s1`
-2.74

Fill in the blank: the reported inhibition of `CC(C)(C)NC(=O)Cn1nnc(-c2cccs2)n1` is ____.
0

Using the record for `CCCN1C=CC(=C2C(=O)c3ccccc3C2=O)C=C1` , report its inhibition.
1

So what's the measured inhibition for this one? Cc1cc(C)nc(N2CCCC(C(=O)Nc3ccc4c(c3)OCO4)C2)n1 (stereo not given)
-12.3

Fill blank: measured inhibition of the molecule O=C(O)C1CC=CCC1C(=O)Nc1ccc(S(=O)(=O)N2CCCc3ccccc32)cc1 (stereo not given) is ____.
0

Quick one: inhibition for `O=C(O)c1ccc(COc2c(F)c(F)cc(F)c2F)cc1` ?
-0.79

What value of inhibition has been reported for the following molecule? COC(=O)CC1C(=O)NCCN1C(=O)NC1CCCCC1 (stereo not given)
-6.98

inhibition lookup needed for CCOC(=O)C1=C(C)NC2=C(C(=O)CC(C)(C)C2)C1c1ccc(N(C)C)cc1 (stereo not given) , thanks.
-5.9

Fill in: inhibition of `Cc1cc(-c2ccccc2)c2nncn2n1` is ___
2.42

Consider the molecule `CCn1c(=O)cc(SCC(=O)N2CCN(C3CCCCC3)CC2)c2ccccc21` and give its measured inhibition.
0.18

Please look up its inhibition: CCc1cc2c(=O)n(C(C)C(=O)OC3CCCCC3)cnc2s1 (stereo not given)
-5.83

State the recorded inhibition for this entry: `Cc1cccc(Nc2nc(N)nc(CN3CCC(C(N)=O)CC3)n2)c1C`
-3.49

Given the entry O=C(Nc1ccc2c(c1)OCCO2)C1CCCN1S(=O)(=O)c1cccc2cccnc12 (stereo not given) , report its measured inhibition.
-0.98

Would you kindly share the measured inhibition for `CSc1nnc2c3ccccc3n(CCc3ccccc3)c2n1` ?
46.2

Quick one: inhibition for `CCCn1nnnc1SCC(=O)c1ccc2c(c1)OCCO2` ?
10.7

# input molecule: `O=C(CCn1nc(-c2ccccc2)ccc1=O)N1CCCC1` ; wanted: its inhibition
0.48

Item under review: `O=C(Cn1cnc2ccccc2c1=O)NCCC(=O)N1CCN(Cc2ccccc2)CC1` . Reported inhibition?
0.98
